The following molecules are shown together with reported growth values.
System: Klebsiella aerogenes DSM 30053
experimental details: growth (OD595) fold change vs plate DMSO controls (fold change (ratio)); higher = more growth
condition info: incubation time: 27 h, anaerobic, 37 °C
Counter-ions that a name gives are not always drawn.

CC(C)(C)CC(C)(C)c1ccc(O)c(Cc2ccc(Cl)cc2Cl)c1 [Clofoctol] (20 µM)
1.01
Cc1ccc2c([nH]c(=O)c3c(=O)cc(C(=O)OCCC(C)C)oc32)c1C [Repirinast] (20 µM)
0.997
CC(=O)Nc1c(I)c(NC(C)=O)c(I)c(C(=O)O)c1I [Diatrizoic acid dihydrate] (20 µM)
1.01
CN(C)CCC(c1ccc(Br)cc1)c1ccccn1 (configuration not stated) [Brompheniramine maleate] (20 µM)
1.07

Now consider the entry below.
Ask | Which value of growth has been reported for Cc1ccc2c(c1)c1c3n2CCNC3CCC1 (configuration not stated) [Pirlindole mesylate] (20 µM) in the records?
Reply | 0.98

* * *

Tested on: Ruminococcus gnavus DSM 108212
experimental details: growth (OD595) fold change vs plate DMSO controls (fold change (ratio)); higher = more growth
condition info: incubation time: 27 h, anaerobic, 37 °C
Where a name gives a salt, the structure may show the parent alone.
The following compounds are shown together with reported growth values.
The reply should be a number, written without any unit.

CS(=O)(=O)c1ccc([C@@H](O)[C@@H](CO)NC(=O)C(Cl)Cl)cc1 [Thiamphenicol] (20 µM)
0.18
CCCNC(C)C(=O)Nc1c(C)csc1C(=O)OC (centres undefined) [Articaine hydrochloride] (20 µM)
1.12
O=c1[nH]c(=O)n([C@H]2C[C@H](O)[C@@H](CO)O2)cc1I [Idoxuridine] (20 µM)
0.871

Now consider the entry below.
Ask | # get_value(readout= growth, system= Ruminococcus gnavus DSM 108212) for COc1ccc2cc1Oc1ccc(cc1)C[C@H]1c3c(cc4c(c3Oc3cc5c(cc3OC)CCN(C)[C@@H]5C2)OCO4)CCN1C [Cepharanthine] (20 µM)
Reply | 0.925

* * *

System: Klebsiella aerogenes DSM 30053
experimental details: growth (OD595) fold change vs plate DMSO controls (fold change (ratio)); higher = more growth
condition info: incubation time: 27 h, anaerobic, 37 °C
Where a name gives a salt, the structure may show the parent alone.
The following compounds are shown together with reported growth values.
The reply should be a number, written without any unit.

Here is how some compounds turned out for growth.
C#C[C@]1(O)CC[C@H]2[C@@H]3CCc4cc(OC)ccc4[C@H]3CC[C@@]21C [Mestranol] (20 µM)
1.09
CC(C)NC[C@H](O)COc1cccc2ccccc12 [(S)-(-)-Propranolol hydrochloride] (20 µM)
1.07
OC[C@H]1OC(O)[C@H](O)[C@@H](O)[C@@H]1O (some centres undefined) [Glucose/Dextrose] (50 µM)
1.01

Now consider the entry below.
Ask | # get_value(readout= growth, system= Klebsiella aerogenes DSM 30053) for CCCCCCOc1ccccc1C(N)=O [Exalamide] (20 µM)
Reply | 1.03

* * *

Tested on: Escherichia coli IAI1
experimental details: fold change of Putrescine concentration vs plate DMSO controls (fold change (ratio)); higher = more amine produced, active = hit call of the paper (significant change in both replicates, either direction);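 for the amine columns active = adjusted P below 0.05 in both replicates with a change the same way and a mean fold change under 0.8 or over 1.25; inactive = the rest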
condition info: incubation time: 27 h, anaerobic, 37 °C
Structures can show the parent of a compound that is named as a salt.
Please answer using one outcome listed in 1.0 (active), 0.0 (inactive)

Here are 6 compounds together with their reported answers.
Cc1cc2cc3c(C)cc(=O)oc3c(C)c2o1 [Trioxsalen] (20 µM)
0.0
O=C1O[C@H]([C@@H](O)CO)C(O)=C1O [Ascorbic acid] (20 µM)
0.0
CCn1cc(C(=O)O)c(=O)c2cc(F)c(N3CCNC(C)C3)c(F)c21 (configuration not stated) [Lomefloxacin hydrochloride] (20 µM)
1.0
C=C1c2c(Cl)ccc(O)c2C(O)=C2C(=O)[C@]3(O)C(O)=C(C(N)=O)C(=O)[C@@H](N(C)C)[C@@H]3[C@@H](O)[C@H]12.O=C(O)c1cc(S(=O)(=O)O)ccc1O [Meclocycline sulfosalicylate] (20 µM)
1.0
CC(C)NCC(O)COc1cccc2[nH]c3ccccc3c12 (configuration not stated) [Carazolol] (20 µM)
0.0
NS(=O)(=O)c1cc2c(cc1Cl)NC(C(Cl)Cl)NS2(=O)=O (configuration not stated) [Trichlormethiazide] (20 µM)
0.0

Would you kindly look at the next entry?
Ask | Short answer needed: outcome of this test for OC[C@H]1O[C@H](O[C@H]2O[C@H](CO)[C@@H](O)[C@H](O)[C@H]2O)[C@H](O)[C@@H](O)[C@@H]1O [Trehalose] (50 µM) ?
Reply | 0.0

* * *

Test system: Escherichia coli IAI1
experimental details: growth (OD595) fold change vs plate DMSO controls (fold change (ratio)); higher = more growth
condition info: incubation time: 27 h, anaerobic, 37 °C
Counter-ions that a name gives are not always drawn.
outcome measure: growth
The reply should be a number, written without any unit.

Here is how some molecules turned out for growth.
CNCC[C@@H](Oc1ccccc1C)c1ccccc1 [Tomoxetine hydrochloride] (20 µM)
1.01
Nc1ccc(S(=O)(=O)Nc2nccs2)cc1 [Sulfathiazole] (20 µM)
0.979
CC(C)NCC(O)COc1cccc2[nH]ccc12 (centres undefined) [Pindolol] (20 µM)
1.13
Cc1cccc(C)c1NC(=O)CN1CCN(CCCC(c2ccc(F)cc2)c2ccc(F)cc2)CC1 [Lidoflazine] (20 µM)
1
NC(=O)c1cccnc1 [Nicotinamide] (20 µM)
0.979

Ask | Which value of growth has been reported for COc1ccc(C(=O)CC(=O)c2ccc(C(C)(C)C)cc2)cc1 [Avobenzone] (20 µM) in the records?
Reply | 0.95

Ask | Which value of growth has been reported for CCCC(CCC)C(=O)O[C@H]1C[C@H]2CC[C@@H](C1)[N+]2(C)C [Anisotropine Methylbromide] (20 µM) in the records?
Reply | 1.07

Ask | Which value of growth has been reported for CC(C)NCC(O)c1ccc(NS(C)(=O)=O)cc1 (centres undefined) [Sotalol hydrochloride] (20 µM) in the records?
Reply | 0.97

Ask | Which value of growth has been reported for Cc1cc(C(=O)NNCc2ccccc2)no1 [Isocarboxazid] (20 µM) in the records?
Reply | 1.04

Ask | Which value of growth has been reported for C=C1C[C@@]23CC[C@H]4[C@@](C)(CCC[C@@]4(C)C(=O)O[C@@H]4O[C@H](CO)[C@@H](O)[C@H](O)[C@H]4O)[C@@H]2CC[C@]1(O[C@@H]1O[C@H](CO)[C@@H](O)[C@H](O)[C@H]1O[C@@H]1O[C@H](CO)[C@@H](O)[C@H](O)[C@H]1O)C3 [Stevioside] (50 µM) in the records?
Reply | 1

Ask | Which value of growth has been reported for CCN1CCCC1CNC(=O)c1cc(S(N)(=O)=O)ccc1OC (centres undefined) [Sulpiride] (20 µM) in the records?
Reply | 1

Ask | Which value of growth has been reported for OC[C@H]1O[C@H](O[C@H]2[C@H](O)[C@@H](O)[C@H](O)O[C@@H]2CO)[C@H](O)[C@@H](O)[C@@H]1O [Maltose] (50 µM) in the records?
Reply | 1.03

Ask | Which value of growth has been reported for CCOCCn1c(N2CCCN(C)CC2)nc2ccccc21 [Emedastine difumarate] (20 µM) in the records?
Reply | 1.02

Ask | Which value of growth has been reported for Nc1ccn([C@@H]2O[C@H](CO)[C@@H](O)[C@@H]2O)c(=O)n1 [Cytarabine] (20 µM) in the records?
Reply | 1.03

Ask | Which value of growth has been reported for CCOc1ccc(Cc2nccc3cc(OCC)c(OCC)cc23)cc1OCC [Ethaverine hydrochloride] (20 µM) in the records?
Reply | 0.99

Ask | Which value of growth has been reported for CN(C)CCN1C(=O)c2ccccc2N(C)c2ccccc21 [Dibenzepine hydrochloride] (20 µM) in the records?
Reply | 0.993

Ask | Which value of growth has been reported for CC(=O)OCC(=O)[C@@]12N=C(C)O[C@@H]1C[C@H]1[C@@H]3CCC4=CC(=O)C=C[C@]4(C)[C@H]3[C@@H](O)C[C@@]12C [Deflazacort] (20 µM) in the records?
Reply | 0.976

Ask | Which value of growth has been reported for CCOC(=O)C1=C[C@]2(CC)CCCN3CCc4c(n1c1ccccc41)[C@@H]32 [Vinpocetine] (20 µM) in the records?
Reply | 0.979

Ask | Which value of growth has been reported for CCCNCC(O)COc1ccccc1C(=O)CCc1ccccc1 (centres undefined) [Propafenone hydrochloride] (20 µM) in the records?
Reply | 0.96

Ask | Which value of growth has been reported for C/C(=C1\CCOC(=O)S1)N(C=O)Cc1cnc(C)nc1N [Cycotiamine] (20 µM) in the records?
Reply | 0.988

Ask | Which value of growth has been reported for CC(C)OC(=O)CCC/C=C\C[C@@H]1[C@@H](CC[C@@H](O)CCc2ccccc2)[C@H](O)C[C@@H]1O [Latanoprost] (20 µM) in the records?
Reply | 1
